Source listed as patent US20040214850A1.

tested on: DU-145 (human prostate cancer); assay: In vitro anti-cancer activity, MTS growth inhibition assay, DU-145; assay type: cell-based; details: DU-145 cells (Table 4, Example 13), read-out: IC50 DU-145
pIC50: −log10 of the molar value.
Collected pIC50 values appear next to each entry.

>  <Molecule>
Cc1cc(NC(=O)C(=O)c2cc(N(C)c3ccc(C#N)cc3)n3ccccc23)sn1

>  <pIC50>
7.30

$$$$
>  <Molecule>
Cc1cc(NC(=O)C(=O)c2cc(Oc3ccc(C#N)cc3)n3ccccc23)sn1

>  <pIC50>
7.30

$$$$
>  <Molecule>
Cc1ccc2c(C(=O)C(=O)Nc3cc(C)ns3)cc(Cc3ccc(C#N)cc3)n2c1

>  <pIC50>
7.30

$$$$
>  <Molecule>
Cc1cc(NC(=O)C(=O)c2cc(Cc3ccc(C#N)s3)n3ccccc23)sn1

>  <pIC50>
7.00

$$$$
